Assay: physchem
Settings: octan-1-ol/water, pH 7.4, LogD7.4
Measured logD of individual entries
Give the figure only, with no unit attached.

CC1CC(OC(=O)C(O)c2ccccc2)CC(C)(C)C1 (stereo unspecified) [CYCLANDELATE] :: 2.31
COC(=O)[C@H](Cc1ccc([N+](=O)[O-])cc1)NC(=O)c1cccc2ccccc12 :: 3.58
CNc1c(Br)cnc2[nH]c(-c3cccc(N)c3)nc12 :: 2.96
Clc1cccc(Cl)c1/C(=C/n1cncn1)OC1CCCCCC1 :: 4.1
Cc1nc(CSc2ccc(Cl)cc2)cc(N2CCOCC2)n1 :: 3.38

Continue with the next compound.
So for COc1cc2nc(Nc3ccc([C@@H](C)NC(C)=O)cc3)ncc2cc1-c1ccncc1 , the logged logD turned out to be 3.11
